Tested on: Enterococcus faecalis
ASSAY_NOTES: Antibacterial activity against clinical isolates of Enterococcus faecalis GMCH/B0091 after overnight incubation by microdilution broth assay
Type: functional
Square brackets hold non-standard residues; d marks the D form. Peptide text beside a SMILES is read from it. * marks the point of attachment. Palmitoyl = CCCCCCCCCCCCCCCC(=O)*; Orn = NCCC[CH](N)C(=O)O
Each entry below carries its reported MIC.
TEST_READOUT: MIC (µg/mL)

COMPOUND	TEST_READOUT	READOUT_VALUE
CCCCCCCCCCCCCC(=O)NC(CCCN)C(=O)NC(CCCN)C(=O)NC(CCCN)C(N)=O (stereo not drawn)	MIC	1.5
CCCCCCCCCCCCCCCC(=O)NC(CCCN)C(=O)NC(CCCN)C(=O)NC(CCCN)C(=O)NC(CCCN)C(N)=O (stereo not drawn) (Palmitoyl-[Orn][Orn][Orn][Orn]-NH2; configuration not given here)	MIC	3.5
CCCCCCCCCCCCCCCC(=O)NC(CCCN)C(=O)NC(CCCN)C(=O)NC(CCCN)C(=O)NC(CCCN)C(=O)NC(CCCN)C(N)=O (stereo not drawn) (Palmitoyl-[Orn][Orn][Orn][Orn][Orn]-NH2; configuration not given here)	MIC	2

###

Tested on: Enterococcus faecium
ASSAY_NOTES: Antibacterial activity against clinical isolates of penicillin-resistant Enterococcus faecium GMCH/R-Pen003 after overnight incubation by microdilution broth assay
Type: functional
Square brackets hold non-standard residues; d marks the D form. Peptide text beside a SMILES is read from it. * marks the point of attachment. Stearoyl = CCCCCCCCCCCCCCCCCC(=O)*; Palmitoyl = CCCCCCCCCCCCCCCC(=O)*; Myristoyl = CCCCCCCCCCCCCC(=O)*; Orn = NCCC[CH](N)C(=O)O

MOLECULE	UNIT_OF_MEASURE	MIC
CCCCCCCCCCCCCC(=O)NC(CCCN)C(=O)NC(CCCN)C(=O)NC(CCCN)C(=O)NC(CCCN)C(=O)NC(CCCN)C(N)=O (stereo not given) (Myristoyl-[Orn][Orn][Orn][Orn][Orn]-NH2; configuration not given here)	µg/mL	6.21
CCCCCCCCCCCCCCCCCC(=O)NC(CCCN)C(=O)NC(CCCN)C(=O)NC(CCCN)C(=O)NC(CCCN)C(N)=O (stereo not given) (Stearoyl-[Orn][Orn][Orn][Orn]-NH2; configuration not given here)	µg/mL	12.5
CCCCCCCCCCCCCCCC(=O)NC(CCCN)C(=O)NC(CCCN)C(=O)NC(CCCN)C(=O)NC(CCCN)C(N)=O (stereo not given) (Palmitoyl-[Orn][Orn][Orn][Orn]-NH2; configuration not given here)	µg/mL	3.5
CCCCCCCCCCCCCC(=O)NC(CCCN)C(=O)NC(CCCN)C(=O)NC(CCCN)C(N)=O (stereo not given)	µg/mL	3.1
CCCCCCCCCCCCCCCC(=O)NC(CCCN)C(=O)NC(CCCN)C(=O)NC(CCCN)C(=O)NC(CCCN)C(=O)NC(CCCN)C(N)=O (stereo not given) (Palmitoyl-[Orn][Orn][Orn][Orn][Orn]-NH2; configuration not given here)	µg/mL	7.5

###

ASSAY_NOTES: Cytotoxicity against human HaCaT cells assessed as cell viability at 100 ug/ml after 18 hrs by MTT assay
Assay type: cell-based
TEST_SETTINGS: read-out: Activity
Square brackets hold non-standard residues; d marks the D form. Peptide text beside a SMILES is read from it. * marks the point of attachment. Palmitoyl = CCCCCCCCCCCCCCCC(=O)*; Orn = NCCC[CH](N)C(=O)O
Each entry below carries its reported viability at 18 h, 100 ug/ml.

COMPOUND	viability at 18 h, 100 ug/ml
CCCCCCCCCCCCCCCCCC(=O)NC(CCCN)C(=O)NC(CCCN)C(=O)NC(CCCN)C(N)=O (centres undefined)	> 80%
CCCCCCCCCCCCCCCC(=O)NC(CCCN)C(=O)NC(CCCN)C(=O)NC(CCCN)C(=O)NC(CCCN)C(N)=O (centres undefined) (Palmitoyl-[Orn][Orn][Orn][Orn]-NH2; configuration not given here)	> 80%
CCCCCCCCCCCCCC(=O)NC(CCCN)C(=O)NC(CCCN)C(=O)NC(CCCN)C(N)=O (centres undefined)	92%
CCCCCCCCCCCCCCCC(=O)NC(CCCN)C(=O)NC(CCCN)C(=O)NC(CCCN)C(=O)NC(CCCN)C(=O)NC(CCCN)C(N)=O (centres undefined) (Palmitoyl-[Orn][Orn][Orn][Orn][Orn]-NH2; configuration not given here)	> 80%

###

ASSAY_NOTES: Toxicity in albino mouse assessed as mortality at 45 mg/kg, iv
Assay type: organism-based
Design: dose 45 mg/kg, route intravenous
TEST_SETTINGS: in vivo

COMPOUND	mortality, %
CCCCCCCCCCCCCC(=O)NC(CCCN)C(=O)NC(CCCN)C(=O)NC(CCCN)C(N)=O (stereo unspecified)	15

###

Tested on: Pseudomonas aeruginosa
ASSAY_NOTES: Antibacterial activity against clinical isolates of Pseudomonas aeruginosa PGI/DML02084 after overnight incubation by microdilution broth assay
Type: functional
Square brackets hold non-standard residues; d marks the D form. Peptide text beside a SMILES is read from it. * marks the point of attachment. Palmitoyl = CCCCCCCCCCCCCCCC(=O)*; Myristoyl = CCCCCCCCCCCCCC(=O)*; Orn = NCCC[CH](N)C(=O)O
Each entry below carries its reported MIC.
TEST_READOUT: MIC (µg/mL)

MOLECULE	TEST_READOUT	READOUT_VALUE
CCCCCCCCCCCCCC(=O)NC(CCCN)C(=O)NC(CCCN)C(=O)NC(CCCN)C(=O)NC(CCCN)C(=O)NC(CCCN)C(N)=O (stereo not drawn) (Myristoyl-[Orn][Orn][Orn][Orn][Orn]-NH2; configuration not given here)	MIC	1.5
CCCCCCCCCCCCCCCCCC(=O)NC(CCCN)C(=O)NC(CCCN)C(=O)NC(CCCN)C(N)=O (stereo not drawn)	MIC	1.5
CCCCCCCCCCCCCCCC(=O)NC(CCCN)C(=O)NC(CCCN)C(=O)NC(CCCN)C(=O)NC(CCCN)C(=O)NC(CCCN)C(N)=O (stereo not drawn) (Palmitoyl-[Orn][Orn][Orn][Orn][Orn]-NH2; configuration not given here)	MIC	2

###

ASSAY_NOTES: Toxicity in iv dosed albino mouse
Assay type: organism-based
TEST_SETTINGS: in vivo

MOLECULE	LD50, mg/kg
CCCCCCCCCCCCCC(=O)NC(CCCN)C(=O)NC(CCCN)C(=O)NC(CCCN)C(N)=O (stereo unspecified)	81.3

###

Each entry below carries its reported MIC.
Test system: Klebsiella pneumoniae
ASSAY_NOTES: Antibacterial activity against clinical isolates of Klebsiella pneumoniae GMCH/B0127 after overnight incubation by microdilution broth assay
Type: functional
Square brackets hold non-standard residues; d marks the D form. Peptide text beside a SMILES is read from it. * marks the point of attachment. Stearoyl = CCCCCCCCCCCCCCCCCC(=O)*; Palmitoyl = CCCCCCCCCCCCCCCC(=O)*; Orn = NCCC[CH](N)C(=O)O
TEST_READOUT: MIC (µg/mL)

COMPOUND	READOUT_VALUE
CCCCCCCCCCCCCCCCCC(=O)NC(CCCN)C(=O)NC(CCCN)C(=O)NC(CCCN)C(N)=O (centres undefined)	3.5
CCCCCCCCCCCCCCCC(=O)NC(CCCN)C(=O)NC(CCCN)C(=O)NC(CCCN)C(N)=O (centres undefined)	3.5
CCCCCCCCCCCCCCCCCC(=O)NC(CCCN)C(=O)NC(CCCN)C(=O)NC(CCCN)C(=O)NC(CCCN)C(=O)NC(CCCN)C(N)=O (centres undefined) (Stearoyl-[Orn][Orn][Orn][Orn][Orn]-NH2; configuration not given here)	4
CCCCCCCCCCCCCCCC(=O)NC(CCCN)C(=O)NC(CCCN)C(=O)NC(CCCN)C(=O)NC(CCCN)C(=O)NC(CCCN)C(N)=O (centres undefined) (Palmitoyl-[Orn][Orn][Orn][Orn][Orn]-NH2; configuration not given here)	2.5

###

Test system: Staphylococcus epidermidis
ASSAY_NOTES: Antibacterial activity against clinical isolates of Staphylococcus epidermidis GMCH/B0057 after overnight incubation by microdilution broth assay
Format: functional
Square brackets hold non-standard residues; d marks the D form. Peptide text beside a SMILES is read from it. * marks the point of attachment. Stearoyl = CCCCCCCCCCCCCCCCCC(=O)*; Myristoyl = CCCCCCCCCCCCCC(=O)*; Orn = NCCC[CH](N)C(=O)O
Each entry below carries its reported MIC.
TEST_READOUT: MIC

MOLECULE	READOUT_VALUE
CCCCCCCCCCCCCCCCCC(=O)NC(CCCN)C(=O)NC(CCCN)C(=O)NC(CCCN)C(N)=O (stereo not given)	7.5 µg/mL
CCCCCCCCCCCCCC(=O)NC(CCCN)C(=O)NC(CCCN)C(=O)NC(CCCN)C(=O)NC(CCCN)C(=O)NC(CCCN)C(N)=O (stereo not given) (Myristoyl-[Orn][Orn][Orn][Orn][Orn]-NH2; configuration not given here)	7.5 µg/mL
CCCCCCCCCC(=O)N[C@@H](Cc1c[nH]c2ccccc12)C(=O)N[C@H](CC(N)=O)C(=O)N[C@@H](CC(=O)O)C(=O)N[C@@H]1C(=O)NCC(=O)N[C@@H](CCCN)C(=O)N[C@@H](CC(=O)O)C(=O)N[C@H](C)C(=O)N[C@@H](CC(=O)O)C(=O)NCC(=O)N[C@H](CO)C(=O)N[C@@H]([C@H](C)CC(=O)O)C(=O)N[C@@H](CC(=O)c2ccccc2N)C(=O)O[C@@H]1C	0.5 µg/mL
CCCCCCCCCCCCCC(=O)NC(CCCN)C(=O)NC(CCCN)C(=O)NC(CCCN)C(N)=O (stereo not given)	3.5 µg/mL
CCCCCCCCCCCCCCCCCC(=O)NC(CCCN)C(=O)NC(CCCN)C(=O)NC(CCCN)C(=O)NC(CCCN)C(N)=O (stereo not given) (Stearoyl-[Orn][Orn][Orn][Orn]-NH2; configuration not given here)	5.5 µg/mL
